Biological target: HLA-A*30:01
Assay: IEDB peptide-MHC binding, purified MHC/competitive/radioactivity; filed as Kd, often an IC50 or EC50 that approximates it; bounds were set here for any values at or beyond the usual limits of such assays
Conditions: source organism: Dengue virus 2 Jamaica/1409/1983
pKd: −log10 of the molar value.
Recorded pKd by entry

| sequenceCode | pKd |
| --- | --- |
| LTSRATWAK | 6.75 |
| RTLAKEGIK | 6.66 |
| AGVLWDVPSP | 4.92 |
| EVKSCHWPK | 6.78 |

----------
Biological target: HLA-A*31:01
Assay: IEDB peptide-MHC binding, purified MHC/direct/fluorescence; filed as Kd, often an IC50 or EC50 that approximates it; bounds were set here for any values at or beyond the usual limits of such assays
Conditions: source organism: Brucella abortus 2308
pKd: −log10 of the molar value.

| sequenceCode | pKd |
| --- | --- |
| RVYKNYDPR | 7.29 |

----------
Target: HLA-B*57:01
Test: IEDB peptide-MHC binding, purified MHC/direct/fluorescence; filed as Kd, often an IC50 or EC50 that approximates it; bounds were set here for any values at or beyond the usual limits of such assays
Details: source organism: Influenza A virus (A/finch/Canada/NS1301/2001(H3N8))

| sequenceCode | measurementUnits | Kd |
| --- | --- | --- |
| GTFEFTSFF | nM | 360 |

----------
Target: HLA-B*15:01
Test: IEDB peptide-MHC binding, purified MHC/competitive/fluorescence; filed as Kd, often an IC50 or EC50 that approximates it; bounds were set here for any values at or beyond the usual limits of such assays
Conditions: source organism: Bacillus cereus G9241
pKd: −log10 of the molar value.
quantityMeasured: pKd

| sequenceCode | tgt | quantityMeasured | experimentalValue |
| --- | --- | --- | --- |
| DEEAINLFH | HLA-B*15:01 | pKd | ≤ 4.70 |

----------
Molecular target: HLA-B*39:01
Assay: IEDB peptide-MHC binding, purified MHC/competitive/fluorescence; filed as Kd, often an IC50 or EC50 that approximates it; bounds were set here for any values at or beyond the usual limits of such assays
Settings: source organism: Orthohantavirus tulaense
pKd: −log10 of the molar value.

| sequenceCode | pKd |
| --- | --- |
| VVDALRNIY | ≤ 4.70 |

----------
Target: HLA-B*45:01
Test: IEDB peptide-MHC binding, purified MHC/competitive/radioactivity; filed as Kd, often an IC50 or EC50 that approximates it; bounds were set here for any values at or beyond the usual limits of such assays
Conditions: source organism: Lymphocytic choriomeningitis virus (strain Armstrong)

| sequenceCode | tgt | Kd |
| --- | --- | --- |
| REAVESCPL | HLA-B*45:01 | ≥ 60.8 µM |

----------
Target: HLA-A*29:02
Assay: IEDB peptide-MHC binding, purified MHC/competitive/radioactivity; filed as Kd, often an IC50 or EC50 that approximates it; bounds were set here for any values at or beyond the usual limits of such assays
Settings: source organism: SARS coronavirus Tor2
quantityMeasured: Kd (nM)

| sequenceCode | signQualifier | experimentalValue |
| --- | --- | --- |
| FYAYLRKHF | ≥ | 46000 |
| FTSCELYHY | = | 3.57 |
| ELSPRWYFY | = | 70.3 |
| VMMSAPPAEY | = | 3.16 |
| YSNRNRFLY | = | 0.588 |
| PYNSVTDTI | = | 6820 |
| KTIVESCGNY | = | 844 |
| IDATSTGNY | = | 447 |
| DTSNPKTPKY | = | 367 |
| LYIIKLVFLW | ≥ | 31800 |
| YTTTIKPVSY | = | 31.6 |
| AMGKPVPYCY | = | 89.5 |
| ITLVYKVYY | = | 1.64 |
| AMQKESDDY | = | 15500 |

----------
Biological target: HLA-A*02:12
Assay: IEDB peptide-MHC binding, purified MHC/competitive/fluorescence; filed as Kd, often an IC50 or EC50 that approximates it; bounds were set here for any values at or beyond the usual limits of such assays
Details: source organism: Entamoeba histolytica HM-1:IMSS
# maps each entry to its Kd

| sequenceCode | tgt | Kd |
| --- | --- | --- |
| EVIRATYPS | HLA-A*02:12 | ≥ 20 µM |
| RTFDRFFEE | HLA-A*02:12 | ≥ 20 µM |

----------
Biological target: HLA-A*02:19
Experiment: IEDB peptide-MHC binding, purified MHC/direct/fluorescence; filed as Kd, often an IC50 or EC50 that approximates it; bounds were set here for any values at or beyond the usual limits of such assays
Settings: source organism: Toxoplasma gondii
pKd: −log10 of the molar value.

| sequenceCode | pKd |
| --- | --- |
| VSSHKGWAK | ≤ 4.70 |

----------
Target: HLA-A*02:19
Test: IEDB peptide-MHC binding, purified MHC/competitive/fluorescence; filed as Kd, often an IC50 or EC50 that approximates it; bounds were set here for any values at or beyond the usual limits of such assays
Details: source organism: Burkholderia mallei SAVP1
quantityMeasured: Kd (nM)

| sequenceCode | experimentalValue |
| --- | --- |
| IMALKQAGL | 4.5 |

----------
Molecular target: HLA-B*07:02
Assay: IEDB peptide-MHC binding, purified MHC/direct/fluorescence; filed as Kd, often an IC50 or EC50 that approximates it; bounds were set here for any values at or beyond the usual limits of such assays
Conditions: source organism: Giardia lamblia ATCC 50803
pKd: −log10 of the molar value.

| sequenceCode | pKd |
| --- | --- |
| VAAKGAPAL | 6.55 |

----------
Each item that follows carries a reported Kd.
Molecular target: HLA-A*69:01
Experiment: IEDB peptide-MHC binding, purified MHC/direct/fluorescence; filed as Kd, often an IC50 or EC50 that approximates it; bounds were set here for any values at or beyond the usual limits of such assays
Conditions: source organism: Bacillus anthracis
quantityMeasured: Kd

| sequenceCode | experimentalValue |
| --- | --- |
| PTDYAKPQY | ≥ 20 µM |
| TPRIANRLL | ≥ 20 µM |

----------
Target: HLA-A*03:01
Assay: IEDB peptide-MHC binding, purified MHC/direct/fluorescence; filed as Kd, often an IC50 or EC50 that approximates it; bounds were set here for any values at or beyond the usual limits of such assays
Conditions: source organism: Choclo virus
quantityMeasured: Kd

| sequenceCode | experimentalValue |
| --- | --- |
| ELRQLAQSL | ≥ 20 µM |

----------
Target: HLA-B*18:01
Test: IEDB peptide-MHC binding, purified MHC/competitive/fluorescence; filed as Kd, often an IC50 or EC50 that approximates it; bounds were set here for any values at or beyond the usual limits of such assays
Conditions: source organism: Influenza A virus (A/X-31(H3N2))
pKd: −log10 of the molar value.

| sequenceCode | pKd |
| --- | --- |
| CFMYSDFHF | 5.70 |

----------
Molecular target: HLA-B*39:01
Experiment: IEDB peptide-MHC binding, purified MHC/competitive/fluorescence; filed as Kd, often an IC50 or EC50 that approximates it; bounds were set here for any values at or beyond the usual limits of such assays
Conditions: source organism: Vibrio cholerae 2740-80
quantityMeasured: Kd

| sequenceCode | experimentalValue |
| --- | --- |
| LAVFPAMFW | ≥ 20 µM |

----------
Target: HLA-B*07:02
Assay: IEDB peptide-MHC binding, purified MHC/direct/fluorescence; filed as Kd, often an IC50 or EC50 that approximates it; bounds were set here for any values at or beyond the usual limits of such assays
Settings: source organism: Influenza A virus (A/Turkey/MO/24093/99(H1N2))
quantityMeasured: Kd

| sequenceCode | tgt | quantityMeasured | experimentalValue |
| --- | --- | --- | --- |
| GMQIRGFVY | HLA-B*07:02 | Kd | ≥ 20 µM |

----------
Biological target: HLA-B*51:01
Experiment: IEDB peptide-MHC binding, purified MHC/direct/fluorescence; filed as Kd, often an IC50 or EC50 that approximates it; bounds were set here for any values at or beyond the usual limits of such assays
Conditions: source organism: Vibrio cholerae

| sequenceCode | Kd |
| --- | --- |
| LLRQHWLSL | ≥ 20 µM |

----------
Target: HLA-B*14:02
Assay: IEDB peptide-MHC binding, purified MHC/competitive/fluorescence; filed as Kd, often an IC50 or EC50 that approximates it; bounds were set here for any values at or beyond the usual limits of such assays
Conditions: source organism: Entamoeba histolytica HM-1:IMSS

| sequenceCode | tgt | Kd |
| --- | --- | --- |
| EVIRATYPS | HLA-B*14:02 | ≥ 5 µM |

----------
Biological target: HLA-B*58:01
Test: IEDB peptide-MHC binding, purified MHC/direct/fluorescence; filed as Kd, often an IC50 or EC50 that approximates it; bounds were set here for any values at or beyond the usual limits of such assays
Settings: source organism: Brucella abortus 2308
quantityMeasured: Kd

| sequenceCode | tgt | experimentalValue |
| --- | --- | --- |
| RVYKNYDPR | HLA-B*58:01 | ≥ 20 µM |
